assayed_system: FGFR2 (Homo sapiens (Human))
Sequence (P21802 22-821): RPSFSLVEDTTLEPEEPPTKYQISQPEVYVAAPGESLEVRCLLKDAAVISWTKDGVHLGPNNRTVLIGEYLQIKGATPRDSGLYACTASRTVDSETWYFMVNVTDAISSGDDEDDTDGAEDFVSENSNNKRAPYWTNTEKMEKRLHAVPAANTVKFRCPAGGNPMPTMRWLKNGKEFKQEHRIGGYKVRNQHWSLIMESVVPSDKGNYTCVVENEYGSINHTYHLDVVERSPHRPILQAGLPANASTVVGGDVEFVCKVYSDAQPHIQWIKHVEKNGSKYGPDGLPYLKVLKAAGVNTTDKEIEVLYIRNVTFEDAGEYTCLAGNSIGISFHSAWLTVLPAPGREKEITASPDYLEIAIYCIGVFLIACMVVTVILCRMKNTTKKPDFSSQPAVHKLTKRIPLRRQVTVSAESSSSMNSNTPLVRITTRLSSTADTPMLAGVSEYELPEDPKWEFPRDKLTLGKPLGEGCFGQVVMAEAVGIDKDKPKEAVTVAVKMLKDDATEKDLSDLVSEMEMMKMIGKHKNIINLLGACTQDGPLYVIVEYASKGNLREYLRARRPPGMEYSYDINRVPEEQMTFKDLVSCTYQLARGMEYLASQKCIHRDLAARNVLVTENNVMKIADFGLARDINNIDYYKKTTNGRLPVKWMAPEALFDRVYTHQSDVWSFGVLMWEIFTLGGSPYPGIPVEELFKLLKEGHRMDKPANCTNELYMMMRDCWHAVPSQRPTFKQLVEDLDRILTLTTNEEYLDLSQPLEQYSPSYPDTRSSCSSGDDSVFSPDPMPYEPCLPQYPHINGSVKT
experiment: Kinase assay, binding constants (Kd), kinase-tagged T7 phage, qPCR
parameter: Kd

[
  {
    "molecule": "C[C@@H](Oc1ccc2[nH]nc(-c3cnc(N4CC[C@H](O)C4)c(C#N)c3)c2c1)c1c(Cl)cnc(F)c1Cl",
    "reported_result": "> 300 nM"
  },
  {
    "molecule": "C[C@@H](Oc1ccc2[nH]nc(-c3ccc(N4CC5(CCN(S(C)(=O)=O)CC5)OC4=O)nc3)c2c1)c1c(Cl)cncc1Cl",
    "reported_result": "20 to 100 nM"
  },
  {
    "molecule": "Cc1ncc(Cl)c([C@@H](C)Oc2ccc3[nH]nc(-c4ccc(N5CCN6C(=O)CCC6C5)nc4)c3c2)c1Cl (stereo partly shown)",
    "reported_result": "1 to 20 nM"
  },
  {
    "molecule": "C[C@@H](Oc1cc2c(-c3cnc(N4CC5(C4)CN(S(C)(=O)=O)C5)c(F)c3)n[nH]c2cc1F)c1c(Cl)cnnc1Cl",
    "reported_result": "1 to 20 nM"
  },
  {
    "molecule": "COC(=O)N1CCN(c2ccc(-c3n[nH]c4ccc(O[C@H](C)c5c(Cl)cncc5Cl)cc34)cn2)CC1",
    "reported_result": "20 to 100 nM"
  },
  {
    "molecule": "C[C@@H](Oc1ccc2[nH]nc(-c3ccc(F)nc3)c2c1)c1c(Cl)cncc1Cl",
    "reported_result": "20 to 100 nM"
  },
  {
    "molecule": "CC(Oc1ccc2[nH]nc(-c3ccc(N4CC5(C4)CN(S(C)(=O)=O)C5)nc3)c2c1)c1c(Cl)ccnc1Cl (stereo not shown)",
    "reported_result": "1 to 20 nM"
  },
  {
    "molecule": "Cc1ncc(Cl)c([C@@H](C)Oc2cc3c(-c4cnc(N5CC6(C5)CN(S(C)(=O)=O)C6)c(C#N)c4)n[nH]c3cc2F)c1Cl",
    "reported_result": "100 to 300 nM"
  },
  {
    "molecule": "COc1cc2[nH]nc(-c3ccc(N4CC5(C4)CN(S(C)(=O)=O)C5)nc3)c2cc1O[C@H](C)c1c(Cl)cnc(C)c1Cl",
    "reported_result": "1 to 20 nM"
  },
  {
    "molecule": "Cc1cc2[nH]nc(-c3cnc(N4CC5(C4)CN(S(C)(=O)=O)C5)c(C#N)c3)c2cc1O[C@H](C)c1c(Cl)cncc1Cl",
    "reported_result": "100 to 300 nM"
  }
]
